Reference source: PubChem BioAssay AID179

test system: CEM cells HIV-1 protection, formazan growth assay; assay: NCI AIDS Antiviral Assay;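 active = compounds giving half or more protection of infected cells from virus-caused growth loss, again on retest; inactive = the rest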
Classes used: TRUE for active, FALSE for inactive

INSERT INTO results (compound, class_label) VALUES
  ('CC(C)CCC[C@@H](C)C1CCC2C3CCC4C[C@@](O)(C(c5cc(Cl)c(O)c(C(=O)O)c5)c5cc(Cl)c(O)c(C(=O)O)c5)CC[C@]4(C)C3CC[C@@]21C (stereo partly drawn)', 'FALSE'),
  ('Cc1[nH]c2c(ccc3c2ccc2c(=O)c(Cl)c(C)[nH]c23)c(=O)c1Cl', 'FALSE'),
  ('CC1=C(C)C2(C#N)C(=O)N3C(=NC(c4ccco4)NC3c3ccco3)C2(C#N)C(c2ccco2)N1 (stereo not drawn)', 'FALSE'),
  ('COC1C(OC(=O)/C=C/C=C/C=C/C=C\C(=O)O)CCC2(CO2)C1C1(C)OC1CC=C(C)C (stereo not drawn)', 'TRUE'),
  ('CCOC(=O)Cc1[nH]c(C(=O)c2ccccc2)cc1C(=O)c1ccccc1', 'FALSE'),
  ('Clc1cc(Cl)cc(Nc2nc3ccccc3nc2-c2cccs2)c1', 'FALSE'),
  ('Cc1ccc(NC(=O)CC(=O)N2N=C(N(CCC#N)c3cccc(C)c3)CC2c2ccccc2)cc1 (stereo not drawn)', 'FALSE'),
  ('O=S1(=O)CSc2ccc3ccccc3c2-c2c1ccc1ccccc21', 'FALSE'),
  ('COc1ccc(C(CC(=O)O)CC(=O)O)cc1[N+](=O)[O-]', 'FALSE'),
  ('Cc1ccc(S(=O)(=O)NN=C2CCCCCCCCCCC2)cc1', 'FALSE'),
  ('COc1cc(C2SCC(=O)N2c2ccc(-c3ccc(-n4c(-c5ccccc5)nc5ccccc5c4=O)cc3)cc2)ccc1O (stereo not drawn)', 'FALSE'),
  ('CCc1c(CNC2=NCCN2)c(CC)c(CNC2=NCCN2)c(CC)c1CNC1=NCCN1', 'FALSE'),
  ('CC1=C(\C=C/C(C)=C/C=C/C(C)=C/C=N/N=C/C=C(C)\C=C\C=C(C)/C=C/C2=C(C)CCCC2(C)C)C(C)(C)CCC1', 'FALSE'),
  ('NC(=S)C(=S)N=Cc1c(O)c2ccccc2oc1=O', 'FALSE'),
  ('O=c1c(O)c(-c2ccc(O)c(O)c2)oc2cc(O)ccc12', 'FALSE'),
  ('N#CC(C#N)N=Cc1ccncc1', 'FALSE'),
  ('COc1ccc(-c2c3c(nc4nc(SCCc5ccccc5)nc(N)c24)CCCC3)cc1OC', 'FALSE'),
  ('COc1cc2oc3cc(OC)c(OC)c(CC=C(C)C)c3c(=O)c2c(O)c1CC=C(C)C', 'FALSE'),
  ('CCCCCn1c(=O)c2c(=O)[nH][nH]c2c2ccccc21', 'FALSE'),
  ('COc1ccccc1[B-]12OCC[N+]1(CNC(=O)C1=C(O)C3(O)C(=O)C4=C(O)c5c(O)cccc5C(C)(O)C4CC3C(N(C)C)C1=O)CCO2 (stereo not drawn)', 'FALSE'),
  ('CN(C)/C=C(\C(=O)c1ccccc1)n1nc(-c2ccccc2)cc1-c1ccccc1', 'FALSE'),
  ('O=C(Oc1ccccc1)c1cccc(C(=O)Oc2ccccc2)c1', 'FALSE'),
  ('CNNC1=NS(=O)(=O)c2cc(C)c(Cl)cc2S1', 'FALSE'),
  ('O=C(NNC(=S)Nc1ccccc1)c1cc(-c2ccccc2)nc2ccccc12', 'FALSE'),
  ('COc1ccc(-c2c3c(nc4nc(SC)nc(SC)c24)CCCC3)cc1OC', 'FALSE'),
  ('c1ccc(Oc2ncnc3ccccc23)cc1', 'FALSE'),
  ('COC12CC(=O)C(C(C)=O)=C(O)C1(C)c1c(OC(C)=O)c(C)c(O)c(C(C)=O)c1O2 (stereo not drawn)', 'FALSE'),
  ('O=C(NC(O)(C(F)(F)F)C(F)(F)F)c1ccccc1', 'FALSE'),
  ('CN(C)c1ccc(/C=C(\NC(=O)c2ccccc2)C(=O)NC(Cc2c[nH]c3ccccc23)C(=O)O)cc1 (stereo not drawn)', 'FALSE'),
  ('C=C(Br)CN1CCC2(c3ccccc3)C(=O)C([Se]c3ccccc3)CCC12 (stereo not drawn)', 'FALSE'),
  ('COC(=O)c1c(C)cc(C)cc1OC', 'FALSE'),
  ('COc1cc(C2c3cc4c(c(O)c3C[C@H]3COC(=O)[C@@H]23)OCO4)cc(OC)c1O (stereo partly drawn)', 'FALSE');

----------
tested on: CEM cells HIV-1 protection, formazan growth assay; assay: NCI AIDS Antiviral Assay; settings: measured here: growth of uninfected CEM cells
Items are presented alongside their recorded IC50.
MEASUREMENT NAME: IC50

INSERT INTO assay_data (molecule, result) VALUES
  ('CC12CCC(C(Nc3cc(C(F)(F)F)cc(C(F)(F)F)c3)C1=O)C2(C)C (stereo not given)', '> 200 µM'),
  ('CC12CCC(=O)N1c1cncnc1N2 (stereo not given)', '> 1320 µM'),
  ('O=C(O)CC[n+]1ccccc1', '> 200 µM'),
  ('C/C(CC(=O)Nc1cc(C)ccc1C)=N/N=C(N)N', '> 52.5 µM'),
  ('CCSc1cccc(C(=O)O)c1', '> 513 µM');

----------
system: CEM cells HIV-1 protection, formazan growth assay; experiment: NCI AIDS Antiviral Assay; conditions: measured here: growth of uninfected CEM cells
MEASUREMENT NAME: IC50

INSERT INTO assay_data (compound, system_name, result) VALUES
  ('CCOC(=O)C(/C=N/C(=S)Nc1c(C)cccc1C)=C(/O)c1ccccc1', 'CEM cells HIV-1 protection, formazan growth assay', '> 200 µM'),
  ('COc1ccc2c(c1)[C@@H]1c3cc(OC)c(OC)cc3CCN1CCC2', 'CEM cells HIV-1 protection, formazan growth assay', '> 200 µM'),
  ('CCCCCCCCCCCCCCCCCC1=Nc2cc(C)c(C)cc2NC(=O)C1', 'CEM cells HIV-1 protection, formazan growth assay', '> 100 µM'),
  ('NC1=NC(=O)CS1', 'CEM cells HIV-1 protection, formazan growth assay', '> 2140 µM'),
  ('CCOC(=O)C1=C(C)N(Cc2ccccc2)C(C)=C(C(=O)OCC)C1c1ccccc1O', 'CEM cells HIV-1 protection, formazan growth assay', '> 16.6 µM'),
  ('CSc1nc(NC(=O)O)c(N(C(C)=O)C(=O)O)c(=O)n1C', 'CEM cells HIV-1 protection, formazan growth assay', '> 794 µM'),
  ('Cc1ccc(NC(=O)C2C(=O)C(=O)N(c3ccc(C)cc3)C2=O)cc1 (stereo not given)', 'CEM cells HIV-1 protection, formazan growth assay', '> 15.5 µM'),
  ('CCOC(=O)CC1(N)CC2c3ccccc3OC(=O)C2C(=O)N1 (stereo not given)', 'CEM cells HIV-1 protection, formazan growth assay', '> 200 µM'),
  ('O=C(OOC(=O)c1ccccc1)c1ccccc1', 'CEM cells HIV-1 protection, formazan growth assay', '> 200 µM'),
  ('CCOC(=O)C1C(=O)CC2c3nc4ccccc4cc3CN2C1=O (stereo not given)', 'CEM cells HIV-1 protection, formazan growth assay', '> 10 µM');

----------
tested on: CEM cells HIV-1 protection, formazan growth assay; assay: NCI AIDS Antiviral Assay; details: measured here: growth of uninfected CEM cells
compounds and their reported IC50
MEASUREMENT NAME: IC50

INSERT INTO results (compound, system_name, result) VALUES
  ('CN=C(N)NC', 'CEM cells HIV-1 protection, formazan growth assay', '> 1480 µM'),
  ('Cc1c(CCC(C)C)oc2cc3oc(CCC(C)C)c(C)c3cc12', 'CEM cells HIV-1 protection, formazan growth assay', '> 70.8 µM'),
  ('CNNc1ncnc2c1cnn2C', 'CEM cells HIV-1 protection, formazan growth assay', '> 794 µM'),
  ('O=C1CCC2(C=Nc3ccccc32)C2Cc3ccccc3N12 (stereo unspecified)', 'CEM cells HIV-1 protection, formazan growth assay', '> 13.2 µM'),
  ('CCc1c(CNC2=NCCN2)c(CC)c(CNC2=NCCN2)c(CC)c1CNC1=NCCN1', 'CEM cells HIV-1 protection, formazan growth assay', '> 200 µM'),
  ('COc1ccc(NC(=O)CSc2nc(C)nc3c2sc(=S)n3-c2ccccc2)cc1', 'CEM cells HIV-1 protection, formazan growth assay', '> 200 µM');

----------
Quick reference for pIC50 among some compounds
tested on: CEM cells HIV-1 protection, formazan growth assay; assay: NCI AIDS Antiviral Assay; conditions: measured here: growth of uninfected CEM cells
pIC50: −log10 of the molar value.
MEASUREMENT NAME: pIC50

INSERT INTO measurements (compound, result) VALUES
  ('Cc1cc(=O)c(C#N)c(C)s1', '< 3.70'),
  ('O=C(O)/C=C\C(=O)Nc1ccc(S(=O)(=O)c2ccc(NC(=O)/C=C\C(=O)O)cc2)cc1', '< 3.25'),
  ('CCCC(=O)Oc1ccc2c(C)cc(=O)oc2c1', '< 3.70');
